protocol_notes: NCI Yeast Anticancer Drug Screen. Data for the mlh1 rad18 strain (AID 175)
conditions: S. cerevisiae mlh1 rad18 strain growth inhibition; at 50.0 µM; active compounds read high
Compounds without any hit were thinned out: in the full panel of roughly 79,000, 15% have a hit.

compound | quantity_unit | growth inhibition
CCCCC/C(C)=C(\C#N)C(=O)OC | % | -27.4
O=C(O)c1ccccc1C(=O)OCC1CCc2ccccc2C1 (stereo not given) | % | 9.2
N#CCN(CCc1ccccc1)CCc1ccccc1 | % | 34.1
O=C(NCCc1[nH]nc2c1C(=O)C=C(Nc1ccccc1)C2=O)OCc1ccccc1 | % | -52.8
NC(=O)c1n[nH]n(-c2ccccc2)c1=O | % | 3.85
CON(C)C(C#N)=C(C#N)C#N | % | 25.2
Cc1cc(C)nc(NS(=O)(=O)c2ccc(NC(=O)c3cccc4c(Nc5ccc(S(=O)(=O)N=C(N)N)cc5)c5ccccc5nc34)cc2)n1 | % | 15.9
C/C=C(\C)c1cc(=O)c2c(C)cc3c(c2o1)C(=O)c1c(OC)cccc1C3=O | % | 23.9
C1CCCC2(CCC1)OCCO2 | % | 1.65
O=C(CC(=O)c1ccc(-c2ccc(C(=O)CC(=O)c3ccccc3)cc2)cc1)c1ccccc1 | % | -10.7
O=c1c2c(ccc3ccccc32)oc2ccc3ccccc3c12 | % | 16.4
CC(C)(Oc1ccc(Cl)cc1)C(=O)NC1CC(C)(C)N(O)C(C)(C)C1 | % | -18.4
Cc1ccccc1C1OC2=C(Nc3ccc(Cl)cc3N2)C1=O (stereo not given) | % | 25.2
Cn1ncc2c(=S)nc[nH]c21 | % | -13.8
O=C1OCCOCCOCCOCCOCCOCCOC(=O)c2cccc1n2 | % | 9.6
O=C(O)C(CO)(c1ccccc1)c1ccccc1 | % | -0.15
CC(NC(=O)C(Cc1ccccc1)NC(=O)OCc1ccccc1)C(=O)NC1C(CO)OC(n2cnc3c(N)ncnc32)C1O (stereo not given) | % | 16.5
CCC(O)(Cc1ccc(OC)cc1)c1ccc(OC)cc1 (stereo not given) | % | -11.8
CN(C)c1ncnc2c1ncn2CC(O)CN (stereo not given) | % | -17.2
Cc1nn(C)c2c1C(=O)N(C)CC(=O)N2C | % | -8.25
NC(N)=NNC(=S)S | % | 12.8
C[n+]1ccc(/C=C/c2ccnc3c(O)cccc23)cc1 | % | 18
CC(C)=CCC/C(C)=C/CO | % | -14.2
Cc1cc(=O)n2cn[nH]c2n1 | % | 25.8
CCNc1nnc(-c2nsc3ccccc23)s1 | % | -18.9

---

Entries and their measured growth inhibition follow.
protocol_notes: NCI Yeast Anticancer Drug Screen. Data for the mlh1 rad18 strain (AID 175)
conditions: S. cerevisiae mlh1 rad18 strain growth inhibition; at 50.0 µM; active compounds read high
Compounds without any hit were thinned out: in the full panel of roughly 79,000, 15% have a hit.

molecule | growth inhibition / %
COC(OC)c1cccc2c1C(=O)CCC1(O)c3ccccc3C1C2 (stereo not given) | -30.9
Nc1cc(Cl)cc2[nH]c(=O)c3cc(Cl)ccc3c12 | 38
CCCCCCCCCCCCCCCCOC(=O)c1cc([N+](=O)[O-])cc([N+](=O)[O-])c1Sc1ncnc2nc[nH]c12 | -32.2
O=S(=O)(c1ccccc1)C1C2CCC(O2)C1S(=O)(=O)c1ccccc1 (stereo not given) | 10.1
CC1(C)CC(=O)C(N=Nc2ccccc2)=C(O)C1 | -0.75

---

protocol_notes: NCI Yeast Anticancer Drug Screen. Data for the mlh1 rad18 strain (AID 175)
conditions: S. cerevisiae mlh1 rad18 strain growth inhibition; at 50.0 µM; active compounds read high
The panel holds about 79,000 compounds, 15% with a hit somewhere; the sample as a whole holds those more often.
outcome_measure: growth inhibition (%)

compound | outcome_measure | test_result
COC(=O)[C@]1(C)CCC[C@@]2(C)C1CC[C@@]13C=C(C(C)C)[C@@H](CC1=O)CC23 (stereo partly specified) | growth inhibition | 19.1
O=C1c2ccccc2C(=O)N1CCn1[nH]c(=O)c2ccccc2c1=O | growth inhibition | 14.1
N#CC1CC=CCC1 (stereo unspecified) | growth inhibition | -5.65
CCOC(=O)c1sc(C(=O)OCC)c(O)c1O | growth inhibition | 97
CCOc1nc(N)nc(C)c1N=Nc1ccc(C)cc1 | growth inhibition | 2.45
CC(C)C(=O)NCCc1ccccc1 | growth inhibition | 2.95

---

protocol_notes: NCI Yeast Anticancer Drug Screen. Data for the mlh1 rad18 strain (AID 175)
conditions: S. cerevisiae mlh1 rad18 strain growth inhibition; at 50.0 µM
The panel holds about 79,000 compounds, 15% with a hit somewhere; the sample as a whole holds those more often. Calls of active or inactive are those of the source. No stated cut-off is given here; in the data, active means growth inhibition above about 70%; inactive means the rest.
Possible outcomes: active, inactive

molecule | group_label
O=C1c2ccccc2-c2nc(/C=C/c3ccccc3)cc3c2c1nc1ccccc13 | inactive
Cc1ccc(N2C(=O)CSC2=S)cc1F | inactive
CCCN(CCC)CC(O)CN(CCC)CCC | inactive
CC(C)NC(=O)CCC(=O)O | inactive
COc1cc([C@@H]2c3cc4c(cc3[C@@H](Nc3ccccc3C(=O)c3ccccc3)[C@H]3COC(=O)[C@H]23)OCO4)cc(OC)c1OC | inactive
Cc1ccc2ccccc2c1CC(=O)NN | inactive
CCCCC1(C(=O)NC(=Nc2ccccc2)Nc2ccccc2)CCOC1=O (configuration not stated) | inactive
Cc1ccc(S(=O)(=O)/C=C(\I)c2ccc([N+](=O)[O-])cc2)cc1 | active
C=C1CCN(c2ccc([N+](=O)[O-])cc2)C1=O | inactive
CS(=O)(=O)OC1COCC1OS(C)(=O)=O (configuration not stated) | inactive
CN(CCC1(C)C(=O)CCc2ccccc21)Cc1ccccc1 (configuration not stated) | inactive
O=C(/C=C/c1cccs1)c1ccc(Cl)s1 | inactive

---

protocol_notes: NCI Yeast Anticancer Drug Screen. Data for the mlh1 rad18 strain (AID 175)
conditions: S. cerevisiae mlh1 rad18 strain growth inhibition; at 50.0 µM; active compounds read high
This is part of a sample that, as a whole, favours compounds with a hit. Of some 79,000 tested, about 15% had one in any assay.

compound | growth inhibition / %
CC(=O)/C=C/C1=C(C)CCCC1(C)C (tested in a mixture with another compound) | 5.7
CCCCCCCC(C)(O)C#CC(C)(O)CCCCCCC (configuration not stated) | 13.3
COC(=O)[C@@H](N1C(=O)c2ccccc2C1=O)C1(C)CC(Cl)=NO1 (some centres not stated) | 12.1
CCOC(=O)c1cnc(C)nc1Nc1ccccc1 | -23.7
COc1ccc(C(=O)CCN(C)C)c2ccccc12 | 17.5
COC(=O)CN1C(=O)OC(c2ccccc2)C1=O (configuration not stated) | -13.4
CCN(CC)CCOC1CCCCC1Cc1ccccn1 (configuration not stated) | 5.85
NNC(=O)c1ccc(OCc2nc3ccccc3[nH]2)cc1 | -18.7
Cc1ccc2ccc(=O)oc2c1 | 6.85
O=C(O)CC(NC(=O)CP(=O)(O)O)C(=O)O (configuration not stated) | -13.1
CC(NC(=O)OCC[P+](c1ccccc1)(c1ccccc1)c1ccccc1)C(=O)O (configuration not stated) | -55.2
CN(C)CCN1N=Nc2cccc3cccc1c23 | 39.4

---

Entries and their measured growth inhibition follow.
protocol_notes: NCI Yeast Anticancer Drug Screen. Data for the sgs1 mgt1 strain (AID 161);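 further: 0% = growth of cultures given vehicle only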
conditions: S. cerevisiae sgs1 mgt1 strain, at 50.0 µM, active compounds read high
The panel holds about 79,000 compounds, 15% with a hit somewhere; the sample as a whole holds those more often.

compound | quantity_unit | growth inhibition
CSc1cc(Cl)c(C)cc1S(=O)(=O)NC(=O)NNc1cccc(C(F)(F)F)n1 | % | 9.5
CC(=O)Oc1c(C)n(C(C)=O)c2cc(Cl)ccc12 | % | 15.3
c1ccc(CC2(c3ccccc3)OCc3ccccc32)cc1 (stereo not given) | % | 17.6
COC(=O)C(C(=O)C(=O)Nc1ccc(C)cc1C)c1nc2ccc([N+](=O)[O-])cc2[nH]c1=O (stereo not given) | % | 4.05
C(CCC[Si]12OCCN(CCO1)CCO2)CC[Si]12OCCN(CCO1)CCO2 | % | 20.1
COc1cc(NCCCCCNC(C)C)c2ncccc2c1OC | % | -1.95
CCN(CC)CCOC(=O)Nc1c(Cl)cccc1Cl | % | 8.6
Cc1cccc(C)c1NC(=S)NC(=O)c1cccc(Cl)c1 | % | -2.9
C[C@@H]1CC[C@]2(C)C3(C)CC[C@]2(OC3=O)[C@@]12CC(c1ccoc1)OC2=O (stereo not given in full) | % | -9.35
O=C(CC(=O)n1nc(-c2ccccc2)c(N=Nc2ccc(Cl)cc2)c1-c1ccccc1)Nc1ccc(Cl)cc1 | % | -11.9

---

protocol_notes: NCI Yeast Anticancer Drug Screen. Data for the mlh1 rad18 strain (AID 175)
conditions: S. cerevisiae mlh1 rad18 strain growth inhibition; at 50.0 µM; active compounds read high
Description: Growth inhibition of yeast strains with defined genetic alterations is measured as a screen for potential anti-cancer activity. Selected strains with alterations in DNA damage repair or cell cycle control were exposed to compounds and growth inhibition was measured relative to vehicle treated controls. The strain used in this assay is mlh1 rad18
The panel holds about 79,000 compounds, 15% with a hit somewhere; the sample as a whole holds those more often.
Entries and their measured growth inhibition follow.
outcome_measure: growth inhibition (%)

compound | test_result
Cc1ccc(-c2ccno2)cc1 | 2.25
COc1ccc(N)nn1 | -10.2
COc1cc(NS(=O)(=O)c2ccc(N)cc2)c2ncccc2c1 | 2.95
CN1C(=O)CCC1(O)C1C=CC=CC1 (stereo unspecified) | -2.85
CS(=O)(=O)c1ccc(/C=C2/C=Cc3ccccc32)cc1 | 14.7
CC(C)(C)NCC(O)c1ccc(O)c(CO)n1 (stereo unspecified) | -3.3
COc1ccc(NC(=O)ON(C)C)cc1 | -5.75
O=C(O)COc1ccc(C(=O)O)cc1 | -6.15
O=P(c1ccccc1)(c1ccccc1)C(O)c1ccc(F)cc1 (stereo unspecified) | -7.25
Nc1ccccc1OCCOCCOc1ccccc1N | -10.5
O=C(Nc1ccccc1)OCC#CCOC(=O)Nc1ccccc1 | 11
O=C(O)CCc1nc(-c2ccccc2-n2cccc2)no1 | 8.2
COc1cc(Br)c2ncccc2c1 | -14.5
COCC(=O)c1ccc(C#N)cc1 | 2.2
NC(N)=NC(=S)Nc1ccc(Cl)cc1 | 31.1
COc1ccc2nc(NC(=O)C(=O)C(C)C(=O)c3ccc(Cl)cc3)sc2c1 (stereo unspecified) | -0.25
COC1OC2COC(c3ccccc3)OC2C(OC)C1OC(=O)c1ccccc1 (stereo unspecified) | 7.55
C(=C/c1ccccc1)/C=N/N1CCN(/N=C/C=C/c2ccccc2)CC1 | -7.05
FC(F)(F)C(F)(F)C(F)(F)c1nc(C(F)(F)C(F)(F)C(F)(F)F)nc(C(F)(F)C(F)(F)C(F)(F)F)n1 | 25.6
COc1ccc(C2=C/C(=C/c3cccs3)C(=O)O2)cc1 | 0.15
CC(=O)Nc1ccc(NC(=O)c2cccc3ccccc23)cc1 | 32.1
CN1C[C@H]2[C@@H](C1=O)[C@H](c1ccc([N+](=O)[O-])cc1)ON2C | -33.8
CN1C(C)(C)NC(=S)C1(C)C | -9.65
CC(C)(C)C(=O)OCN1CCOCC1 | -10.2
CC(=O)Nc1ccc(O)c([N+](=O)[O-])c1 | -11.4
COc1cc(Cc2c(OC)c(OC)cc(C)c2C(=O)O)cc(OC)c1 | -14.4
